Target: human V1b receptor (Homo sapiens, UniProt P47901)
Sequence (P47901 1-424): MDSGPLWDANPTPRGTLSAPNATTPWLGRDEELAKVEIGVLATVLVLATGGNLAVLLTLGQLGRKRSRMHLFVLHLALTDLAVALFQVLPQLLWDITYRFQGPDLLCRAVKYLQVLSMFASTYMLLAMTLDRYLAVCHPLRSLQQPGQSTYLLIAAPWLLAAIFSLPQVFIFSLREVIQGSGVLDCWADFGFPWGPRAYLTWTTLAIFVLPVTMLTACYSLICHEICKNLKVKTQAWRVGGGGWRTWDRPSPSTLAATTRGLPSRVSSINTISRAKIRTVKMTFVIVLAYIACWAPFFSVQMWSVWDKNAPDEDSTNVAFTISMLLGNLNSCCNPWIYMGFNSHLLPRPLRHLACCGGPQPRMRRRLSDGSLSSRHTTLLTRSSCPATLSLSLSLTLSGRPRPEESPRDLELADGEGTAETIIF
Assay: V1b binding assay (3H-AVP displacement, HEK-293 membranes)
Set-up: expressed in transfected cells; host or cells: HEK-293 (membranes)
Details: 1.0 μM compound; read-out: V1b@1.0, % Inh
Experimental: V1a, V1b or V2 Binding Assay Receptor binding studies were performed using recombinant human V1a, V1b or V2 receptors. Cellular membranes were harvested from HEK-293 cells transfected to express either the V1a, V1b or V2 receptors. Compounds were evaluated for their ability to displace ^3H-arginine vasopressin (^3H-AVP; specific activity 40-87 Ci/mmol; NEN Life Sciences, Boston, Mass.). […] Non-specific binding was determined using 1.25 μM arginine vasopressin (AVP; Peninsula Labs, Belmont, Calif.). […]
measure: inhibition at 1 µM (%)

Reference set, count: 2
{"compound": "O=c1n(CCCN2CCCCC2)c2ccccc2n1C1CCN(C(=S)NC2c3ccccc3-c3ccccc32)CC1", "target-desc": "human V1b receptor (Homo sapiens, UniProt P47901)", "quantity-unit": "%", "inhibition at 1 µM": 62}
{"compound": "O=C(NC(c1ccccc1)c1ccccc1)N1CCC(n2c(=O)n(CCCN3CCOCC3)c3ccccc32)CC1", "target-desc": "human V1b receptor (Homo sapiens, UniProt P47901)", "quantity-unit": "%", "inhibition at 1 µM": 23}

(1) O=C(NC(c1ccccc1)c1ccccc1)N1CCC(n2c(=O)n(CCCN3CC=CC3)c3ccccc32)CC1
(2) O=c1n(CCCN2CCCCC2)c2ccccc2n1C1CCN(C(=S)NCc2ccc3c(c2)OCO3)CC1
For the pair 1 and 2 , which entry has the numerically smaller recorded inhibition at 1 µM? Answer = label.
2
(2: 27%, 1: 41%)
